Tested on: SK-MEL-28
Assay: NCI tumour cell line growth inhibition, 48 h
The source made the active and inactive calls. Cut-off read from the data, not from the text of the source: active = GI50 up to about 1.1 µM and inactive = higher.

molecule: CSCCC(NC(=O)C(Cc1ccccc1)NC(=O)CNC(=O)CNC(=O)C(N)Cc1ccc(O)cc1)C(=O)O (stereo not given)
GI50: > 100 µM (inactive)
//
molecule: COc1cc(Cn2c3ccccc3c3cc(C)cc(OC)c32)cc2c1[nH]c1ccccc12
GI50: > 25 µM (inactive)
//
molecule: Clc1cc2ccccc2c2ccccc12
GI50: 46.2 µM (inactive)
//
molecule: [N-]=[N+]=NC(CBr)c1cn([C@H]2C[C@H](O)[C@@H](CO)O2)c(=O)[nH]c1=O (stereo not given in full)
GI50: > 100 µM (inactive)
//
molecule: COc1ccc2nc3ccc(OC)cc3c(SCc3ccccc3)c2c1
GI50: > 85.7 µM (inactive)
//
molecule: C=C1C(=O)OC2/C=C(\C)C(O)CC(O)C(C)(O)CC(OC(=O)/C(C)=C/C)C12 (stereo not given)
GI50: 47.9 µM (inactive)
//
molecule: CCOC(=O)c1c(N/C(S)=N/c2ccccc2)sc2c1CCOC2
GI50: 27.5 µM (inactive)
//
molecule: [N-]=[N+]=Nc1ccc2c(c1)Sc1ccccc1N2CCCCN1CCN(Cc2ccc(C(=O)c3ccccc3)cc2)CC1
GI50: 1.96 µM (inactive)
//
molecule: CN(C(=O)C12C3C4C1C1C2C3C41C(=O)N(C)C(C)(C)C)C(C)(C)C (stereo not given)
GI50: > 50 µM (inactive)
//
molecule: Cc1cc(N(CCC#N)CCC#N)ccc1/C=C/C(=O)Nc1ccccc1Cl
GI50: > 100 µM (inactive)

All values here come from ChEMBL document CHEMBL1201862.
